- Assayed system: prolyl hydroxylase (Homo sapiens)
- Sequence (P13674 18-534): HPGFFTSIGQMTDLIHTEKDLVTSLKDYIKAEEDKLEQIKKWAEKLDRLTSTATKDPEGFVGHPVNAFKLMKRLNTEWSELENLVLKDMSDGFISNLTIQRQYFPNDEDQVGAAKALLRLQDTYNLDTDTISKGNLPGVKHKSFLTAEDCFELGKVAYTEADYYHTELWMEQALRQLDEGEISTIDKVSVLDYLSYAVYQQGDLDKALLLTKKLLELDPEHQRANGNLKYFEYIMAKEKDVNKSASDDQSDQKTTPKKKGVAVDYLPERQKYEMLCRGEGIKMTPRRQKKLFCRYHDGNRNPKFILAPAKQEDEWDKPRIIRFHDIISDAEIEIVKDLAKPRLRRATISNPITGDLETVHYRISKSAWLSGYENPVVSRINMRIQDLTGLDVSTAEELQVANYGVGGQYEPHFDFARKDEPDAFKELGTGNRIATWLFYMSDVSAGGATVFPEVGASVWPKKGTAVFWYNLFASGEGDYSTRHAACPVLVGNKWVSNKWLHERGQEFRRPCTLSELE
- Sequence (P07237 18-508 partner): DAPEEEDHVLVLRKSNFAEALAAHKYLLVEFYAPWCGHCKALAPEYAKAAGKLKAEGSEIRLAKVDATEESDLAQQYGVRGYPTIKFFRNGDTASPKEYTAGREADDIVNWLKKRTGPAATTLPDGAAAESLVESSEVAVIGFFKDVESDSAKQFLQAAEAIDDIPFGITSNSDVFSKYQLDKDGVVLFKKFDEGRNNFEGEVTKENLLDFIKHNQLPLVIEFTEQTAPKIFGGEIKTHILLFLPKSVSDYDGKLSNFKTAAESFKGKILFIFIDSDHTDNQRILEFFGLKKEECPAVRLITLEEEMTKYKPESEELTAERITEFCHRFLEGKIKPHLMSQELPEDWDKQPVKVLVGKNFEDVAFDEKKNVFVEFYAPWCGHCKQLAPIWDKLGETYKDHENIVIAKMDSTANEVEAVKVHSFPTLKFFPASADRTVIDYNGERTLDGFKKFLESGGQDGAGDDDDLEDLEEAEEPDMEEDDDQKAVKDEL
- Protocol summary: enzyme test: hydroxylation of underhydroxylated collagen with prolyl hydroxylase in the presence of iron(II) ions, α-keto glutarate and ascorbate
- Assay setup: concentration which leads to an 80% inhibition of enzyme activity (the value is indicated as Ki); salts
Structures can show the parent of a compound that is named as a salt.
Experimental readout: Ki (µM)

>>> number("O=C(O)CNC(=O)C(=O)O [Example 10, (N-Oxalyl)-L-glycine dipotassium salt]")
10
>>> number("C[C@H](NC(=O)C(=O)O)C(=O)O [dipotassium salt]")
40
